The measured values listed here are drawn from the supplement of paper PMC11451515.

test system: SEM cells; assay: cell viability relative to DMSO control; higher = less cytotoxic; settings: HPLM + 10% dialyzed FBS; 48 h; 5.12 µM
Hi! Could you tag entries with cell viability below 90% as 1.0, and those at or above as 0.0? Much appreciated.

compound	target-desc	discrete-label
C=CC(=O)Nc1cccc(Oc2nc(Nc3ccc(N4CCN(C)CC4)cc3)ncc2Cl)c1	SEM cells	1.0
CC1=CC=CC=C1N2\C(=N/C3=C(C(=CC=C3)C)C2=O)C[N]4C=NC5=C4N=CN=C5N	SEM cells	1.0
CN(C)CCOc1cc(-c2cn[nH]c2)ccc1NC(=O)C1COc2ccccc2O1 (configuration not stated)	SEM cells	1.0
COc1c(C)cnc(Cn2cnc3c(Cl)nc(N)nc32)c1C	SEM cells	1.0
CCCCCOC(=O)NC\1=N\C(=O)N(\C=C1F)[C@@H]2O[C@H](C)[C@@H](O)[C@H]2O	SEM cells	0.0
CC(C)OC(=O)OCOP(=O)(CO[C@H](C)Cn1cnc2c(N)ncnc21)OCOC(=O)OC(C)C.O=C(O)C=CC(=O)O	SEM cells	0.0

Okay, next one:
Q) Lab note: cell viability threshold 90%. Does this compound come in strictly under it? COC[C@H]1OC(=O)C2=COC3=C2[C@@]1(C)\C4=C(C5CCC(=O)[C@@]5(C)C[C@H]4OC(C)=O)/C3=O (some centres not stated)
A) 1.0
